- Experimental Details: physchem
- Type: physicochemical
- Test Settings: buffered deionized water, pH 6.8
Outcome Measure: solubility

| Compound String | Outcome Measure | Reported |
| --- | --- | --- |
| O=c1[nH]sc2ccccc12 | solubility | 400 µg/mL |

---

- Experimental Details: physchem
- Format: physicochemical
- Test Settings: buffered 50% aqueous glutaraldehyde, pH 6.8

| Compound | solubility [mg/mL] |
| --- | --- |
| O=c1[nH]sc2ccccc12 [BIT, 1,2-benzisothiazolin-3-one] | 30.4 |

---

- Experimental Details: physchem
- Format: physicochemical
- Test Settings: buffered 50% aqueous glutaraldehyde, pH 4.8
Outcome Measure: solubility (mg/mL)

| Compound | Outcome Measure | Reported |
| --- | --- | --- |
| O=c1[nH]sc2ccccc12 [BIT, 1,2-benzisothiazolin-3-one] | solubility | 33.8 |

---

- Experimental Details: physchem
- Assay type: physicochemical
- Test Settings: buffered 50% aqueous glutaraldehyde, pH 3.2

| Compound String | solubility [mg/mL] |
| --- | --- |
| O=c1[nH]sc2ccccc12 | 31.8 |
